# measurement_protocol: Kinematic viscosity (ASTM D445-94e1)
# Assay type: physicochemical
measure: Viscosity at 0° C. (cSt)
Respond with the bare value in cSt.

Past entries and their recorded results:
| molecule | scale_unit | observed_result |
| --- | --- | --- |
| FC(F)(F)C(=C(Oc1ccc(Cl)cc1)C(F)(F)C(F)(F)F)C(F)(F)F | cSt | 8.4 |
| F/C(=C(/C(F)(F)F)C(F)(Oc1ccc(F)cc1)C(F)(F)C(F)(F)F)C(F)(C(F)(F)F)C(F)(F)F (stereo not drawn) | cSt | 11.8 |
| FC(F)(F)C(=C(Oc1ccccc1)C(F)(F)C(F)(F)F)C(F)(F)F | cSt | 3.6 |

Consider F/C(=C(/C(F)(F)F)C(F)(Oc1ccc(Cl)cc1)C(F)(F)C(F)(F)F)C(F)(C(F)(F)F)C(F)(F)F (stereo not drawn) . Its measured Viscosity at 0° C. is 24.1

Consider F/C(=C(/C(F)(F)F)C(F)(Oc1cc(Cl)cc(Cl)c1)C(F)(F)C(F)(F)F)C(F)(C(F)(F)F)C(F)(F)F (stereo not drawn) . Its measured Viscosity at 0° C. is 40.8

Consider F/C(=C(/C(F)(F)F)C(F)(Oc1ccccc1)C(F)(F)C(F)(F)F)C(F)(C(F)(F)F)C(F)(F)F (stereo not drawn) . Its measured Viscosity at 0° C. is 8.7

----------
# Assay type: physicochemical
Boiling point above non-chlorinated analog listing for selected molecules.
Respond with the bare value in °C.

| molecule | scale_unit | observed_result |
| --- | --- | --- |
| F/C(=C(/C(F)(F)F)C(F)(Oc1cc(Cl)cc(Cl)c1)C(F)(F)C(F)(F)F)C(F)(C(F)(F)F)C(F)(F)F (stereo not shown) | °C | 35 |

Now consider a different molecule.
Consider F/C(=C(/C(F)(F)F)C(F)(Oc1ccc(F)cc1)C(F)(F)C(F)(F)F)C(F)(C(F)(F)F)C(F)(F)F (stereo not shown) . Its measured Boiling point above non-chlorinated analog is 5

----------
# measurement_protocol: Dielectric constant (ASTM D150-11, broadband dielectric spectrometer)
# Assay type: physicochemical
Dielectric Constant @ 1 kHz listing for selected compounds.

| compound | Dielectric Constant @ 1 kHz |
| --- | --- |
| FC(F)(F)C(=C(Oc1ccccc1)C(F)(F)C(F)(F)F)C(F)(F)F [CE2] | 5.16 |
| F/C(=C(/C(F)(F)F)C(F)(Oc1ccc(F)cc1)C(F)(F)C(F)(F)F)C(F)(C(F)(F)F)C(F)(F)F (stereo not drawn) [CE3] | 2.63 |
| F/C(=C(/C(F)(F)F)C(F)(Oc1ccccc1)C(F)(F)C(F)(F)F)C(F)(C(F)(F)F)C(F)(F)F (stereo not drawn) [CE1] | 4.42 |

Consider FC(F)(F)C(=C(Oc1ccc(Cl)cc1)C(F)(F)C(F)(F)F)C(F)(F)F [Ex. 2] . Its measured Dielectric Constant @ 1 kHz is 2.76

Consider F/C(=C(/C(F)(F)F)C(F)(Oc1cc(Cl)cc(Cl)c1)C(F)(F)C(F)(F)F)C(F)(C(F)(F)F)C(F)(F)F (stereo not drawn) [Ex. 3] . Its measured Dielectric Constant @ 1 kHz is 2.54

Consider F/C(=C(/C(F)(F)F)C(F)(Oc1ccc(Cl)cc1)C(F)(F)C(F)(F)F)C(F)(C(F)(F)F)C(F)(F)F (stereo not drawn) [Ex. 1] . Its measured Dielectric Constant @ 1 kHz is 2.57
